System: SK-MEL-28 melanoma
Protocol: NCI-60 one-dose screen, 48 h (100 = growth as untreated, 0 = no growth, -100 = all killed)
Experimental context: 10 µM
Experimental: Growth inhibition of the SK-MEL-28 human tumor cell line is measured as a screen for anti-cancer activity. Cells are grown in 96 well plates and exposed to the test compound for 48 hours. Compounds are tested at a single concentration, which is 10^-5 M for most compounds. The reported endpoint is percent growth (GI% or GIPRCNT), where numbers from 0 - 100% represent growth inhibition, and numbers from -100% - 0 represent cell death. For example, a value of 40 represents 60% growth inhibition. […]
This is part of a sample that, as a whole, favours compounds with a hit. Of some 83,000 tested, about 20% had one in any assay.
Let's look at some compounds and their measured growth.

Compound | growth (%)
Cn1c2c(c(=O)[nH]c1=O)NC1=C(C(=O)c3ccccc31)C1(C=C(O)c3ccccc31)N2 (stereo unspecified) | 148
O=C(NCc1ccccc1)C1CN(c2ccc(Cl)cc2)N(c2ccc(Cl)cc2)C1=O (stereo unspecified) | 88.9
COc1cc(NC(=O)CCSc2nc3ccccc3c(=O)n2CCc2ccccn2)cc(OC)c1OC | 83.3
O=CCCCC(O)C=O (stereo unspecified) | 111
S=C1NC2(c3ccccc3)CCC(=S)N2c2ccccc21 (stereo unspecified) | 114
FC(F)(F)c1cccc(CNC2CCN(CCc3ccccc3)CC2)c1 | 85.1

---

System: SK-MEL-28 melanoma
Protocol: NCI-60 one-dose screen, 48 h (100 = growth as untreated, 0 = no growth, -100 = all killed)
Experimental context: 10 µM
Protocol: Growth inhibition of the SK-MEL-28 human tumor cell line is measured as a screen for anti-cancer activity. Cells are grown in 96 well plates and exposed to the test compound for 48 hours. Compounds are tested at a single concentration, which is 10^-5 M for most compounds. The reported endpoint is percent growth (GI% or GIPRCNT), where numbers from 0 - 100% represent growth inhibition, and numbers from -100% - 0 represent cell death. For example, a value of 40 represents 60% growth inhibition. […]
About 83,000 compounds went through this panel and 20% of them were active in at least one assay; those are over-represented in the sample as a whole.
Lab note - cut at 50% for growth: 1 (yes) if strictly below, 0 (no) if not.

Sample smiles | Discrete label
COc1nccc2cc3c(=O)n4c(cc5ccccc54)c(=O)n3c12 | 0 (no)
O=C(Nc1ccc(Br)cc1F)c1cc(F)ccc1O | 1 (yes)
Cn1c(/C=C(\C#N)c2cccc(C(F)(F)F)c2)nc2c(N3CCOCC3)nc(Cl)nc21 | 1 (yes)
COc1ccc(/C=C/C(=O)c2c(C)nc3ccccc3c2/C=C/c2ccccc2)cc1O | 0 (no)
O=C1Nc2ccccc2/C1=C/c1ccc[nH]1 | 0 (no)
COC(=O)c1ccc(NC(=O)CSc2nc3ccccc3c(=O)n2-c2ccccc2)cc1 | 0 (no)
COc1cc(/C=C/C(=O)c2c(C)nc3ccccc3c2/C=C/c2ccccc2)cc(OC)c1OC | 1 (yes)
CCOc1ccc(Nc2ccnc3cc(Cl)ccc23)cc1 | 1 (yes)
O=C(Nc1ccc(N2CCNCC2)cc1)c1[nH]ncc1Nc1cc(Oc2ccccc2)ncn1 | 1 (yes)
O=C(/C=C/c1ccc(F)cc1)c1ccc(Nc2nc(NCCO)nc(Nc3ccc(Cl)cc3)n2)cc1 | 0 (no)

---

System: T-47D breast
Protocol: NCI-60 one-dose screen, 48 h (100 = growth as untreated, 0 = no growth, -100 = all killed)
Experimental context: 10 µM unless noted
The panel holds about 83,000 compounds, 20% with a hit somewhere; the sample as a whole holds those more often.
Assay readout: growth (%)

Molecule | Meas value
O=C(N/N=C/c1ccccc1Cl)C(=O)Nc1cccc(C(F)(F)F)c1 | 90.2
COc1ccc(/C=C2\NC(=O)NC2=O)cc1O | 100
O=C(CN1C=NC2C(N3CCOCC3)=NC=NC21)c1cccc2ccccc12 (stereo not given) | 90.7
CCOc1cc(Cl)c(C(C)NC(=O)c2cccc(OC)c2)cc1OCC (stereo not given) | 13.5
Oc1c(C(Nc2ccccn2)c2cccc(Oc3ccccc3)c2)ccc2cccnc12 (stereo not given) | -71
CC(C)CCOc1ccc(-c2n[nH]c(C(F)(F)F)c2-c2cncc(C#N)c2)c(O)c1 | 2.83
COc1ccc(C2NCCc3c2[nH]c2ccccc32)cc1CN1CCN(c2ccc(F)cc2)CC1 (stereo not given) | 54.6
O=C1c2ccc3c4c(ccc(c24)C(=O)N1CCCCO)C(=O)N(CCCCO)C3=O | 87.3
O=c1oc2ccc(F)cc2c(=O)n1-c1ccc(F)cc1F | -11.9
C=C(C)CCC(C)N1CCC(N2CCC(C(=O)NCCc3ccccc3)CC2)CC1 (stereo not given) | 60.9

---

System: MDA-MB-231 breast
Protocol: NCI-60 one-dose screen, 48 h
Experimental context: 10 µM unless noted
The panel holds about 83,000 compounds, 20% with a hit somewhere; the sample as a whole holds those more often. Activity calls are given as the source filed them. How the source made its calls: active means growth percent below 10; inactive means the rest.
Outcome codes: active, inactive

Molecule | Discrete label
COc1cc(NC(=O)CCSc2nc3ccccc3c(=O)n2Cc2ccccc2)cc(OC)c1OC | inactive
CCOc1cccc(/C=N\Nc2nc(=O)cc(C(=O)OC)s2)c1O | inactive
O=S1(=O)N(Cc2ccccc2)[C@@H](Cc2ccccc2)[C@H](O)[C@H](O)[C@H](Cc2ccccc2)N1Cc1ccccc1 | active
COc1ccccc1N1CCN(C(CNS(=O)(=O)c2ccc(Cl)cc2)c2cccnc2)CC1 (centres undefined) | inactive

---

System: HOP-92 NSCLC
Protocol: NCI-60 one-dose screen, 48 h
Experimental context: 10 µM unless noted
Experimental: Growth inhibition of the HOP-92 human Non-Small Cell Lung tumor cell line is measured as a screen for anti-cancer activity. Cells are grown in 96 well plates and exposed to the test compound for 48 hours. Compounds are tested at a single concentration, which is 10^-5 M for most compounds. The reported endpoint is percent growth (GI% or GIPRCNT), where numbers from 0 - 100% represent growth inhibition, and numbers from -100% - 0 represent cell death. […]
This is part of a sample that, as a whole, favours compounds with a hit. Of some 83,000 tested, about 20% had one in any assay. Activity calls are given as the source filed them. The calls were made as follows: active = growth percent below 10; inactive = the rest.
Outcome codes: 1.0 = active, 0.0 = inactive

Compound | Measured target | Discrete label
Cc1ccc(N=NC2C(=O)N(c3ccc(Cl)cc3)N(c3ccc(Cl)cc3)C2=O)cc1 | HOP-92 NSCLC | 0.0
COc1ccc(/C=C/C(=O)c2c(C)nc3ccccc3c2/C=C/c2ccccc2)cc1O | HOP-92 NSCLC | 0.0
COc1cc2nc(-c3cnc(N(C)C)nc3)nc(NC3CCN(Cc4ccccc4)CC3)c2cc1OC | HOP-92 NSCLC | 1.0
CCCN1CCN(c2ccc3nc(-c4ccc5nc(-c6cc(OC)ccc6OC)[nH]c5c4)[nH]c3c2)CC1 | HOP-92 NSCLC | 0.0
O=c1oc2ccc(Br)cc2c(=O)n1-c1ccc(F)cc1F | HOP-92 NSCLC | 1.0
CN(C)/C=C1\SC(=Nc2ccc(Cl)cc2)NC1=O | HOP-92 NSCLC | 0.0
N#C/C(=C\c1c(-c2ccccc2)[nH]c2ccccc12)S(=O)(=O)c1ccccc1 | HOP-92 NSCLC | 0.0
CCCCC1COc2cccc3c2N1C=C/C3=C\C(=O)N(C)c1ccccc1 (stereo unspecified) | HOP-92 NSCLC | 0.0
Cc1nn(-c2nc3ccccc3[nH]2)c2c1C(c1ccc(OCC(N)=O)cc1)CC(=O)N2 (stereo unspecified) | HOP-92 NSCLC | 0.0
Nc1ccc(-n2c(=O)oc3ccc(Cl)cc3c2=O)c(Cl)c1 | HOP-92 NSCLC | 1.0
COc1nccc2cc3c(=O)n4c(cc5ccccc54)c(=O)n3c12 | HOP-92 NSCLC | 0.0
Nc1ncnc(N)c1NC(=O)c1ccc(OCc2ccccc2)cc1 | HOP-92 NSCLC | 0.0
COc1ccc2c(c1)C=C1CSCC3=Cc4cc(OC)ccc4OC13O2 | HOP-92 NSCLC | 0.0
O=C(/C=C/c1ccccn1)c1ccc(OCc2nnc(-c3ccc(Cl)cc3)o2)cc1 | HOP-92 NSCLC | 0.0
COc1ccc2oc(=O)cc(Cn3cc(Cn4cnc5c4c(=O)n(C)c(=O)n5C)nn3)c2c1 | HOP-92 NSCLC | 0.0
COc1ccc(N2C(=O)CC(c3cc(OC)c(OC)c(OC)c3)C3C2=NC(=O)N3C)cc1 (stereo unspecified) | HOP-92 NSCLC | 0.0
COc1cc(C(C)n2cc(-c3ccccc3)nn2)ccc1OC1CCCCC1 (stereo unspecified) | HOP-92 NSCLC | 0.0
O=C(O)CCC(=O)c1ccc(C2CCCCCC2)cc1 | HOP-92 NSCLC | 0.0
CN1CCN(Cc2ccc(NC(=O)c3cncc(C#Cc4nc(N)nc5[nH]ncc45)c3)cc2C(F)(F)F)CC1 | HOP-92 NSCLC | 0.0
COC(=O)C1(C)COP(=O)(Nc2ccc(OC)cc2)OC1 (stereo unspecified) | HOP-92 NSCLC | 0.0
CCCCc1ccc(NS(=O)(=O)c2cc3c4c(c2)CCN4C(=O)CC3)cc1 | HOP-92 NSCLC | 1.0
COc1ccc(-c2nocc2-c2cccs2)cc1 | HOP-92 NSCLC | 0.0
O=c1oc2ccc(F)cc2c(=O)n1-c1ccc(Cl)cc1F | HOP-92 NSCLC | 1.0
NS(=O)(=O)c1ccc(CCN=C=S)cc1 | HOP-92 NSCLC | 0.0
FC(F)(F)c1cccc(CNC2CCN(CCc3ccccc3)CC2)c1 | HOP-92 NSCLC | 0.0
COc1ccc(-c2cn[nH]c2-c2cc(OC)c(OC)c(OC)c2)cc1OCc1ccccc1 | HOP-92 NSCLC | 0.0
NNC(=O)CNC(=O)Nc1n[nH]c(=S)s1 | HOP-92 NSCLC | 0.0
CN1CCN(Cc2ccc(NC(=O)c3[nH]ncc3Nc3cc(OC4CCCC4)ncn3)cc2)CC1 | HOP-92 NSCLC | 0.0
O=C(/C=C/c1ccc(C(F)(F)F)cc1)c1ccc(Nc2nc(NCCO)nc(N3CCOCC3)n2)cc1 | HOP-92 NSCLC | 0.0
Cc1ccc(Cn2c(N3CCC(C(=O)NCc4cccs4)CC3)nc3ccccc32)cc1 | HOP-92 NSCLC | 0.0
O=C(CSc1ncccc1C(=O)O)Nc1ccc(Oc2ccccc2)cc1 | HOP-92 NSCLC | 0.0
COc1ccc(Nc2cc(C)nc(NCc3ccccc3)n2)cc1 | HOP-92 NSCLC | 0.0
O=C(Nc1ccc(Br)cc1F)c1cc(Cl)ccc1O | HOP-92 NSCLC | 1.0
COc1ccc2sc(N(Cc3cccnc3)C(=O)c3ccc(C#N)cc3)nc2c1 | HOP-92 NSCLC | 0.0
COc1ccc(C2C3=C(COC3=O)N(CCO)c3cc4c(cc32)CCC4)cc1OC (stereo unspecified) | HOP-92 NSCLC | 0.0
CC(C)C[C@H](C(=O)N[C@H](C(N)=O)C(C)C)N1CC=CCN(OCc2ccccc2)S1(=O)=O | HOP-92 NSCLC | 0.0
O=C1c2ccccc2C(=O)c2c1ccc1[nH]c(CCl)nc21 | HOP-92 NSCLC | 0.0
COC(=O)/C(CCC=C(C)C)=C1\[C@@H](OC(C)=O)C[C@@]2(C)[C@H]1CC(=O)[C@H]1[C@@]3(C)CC[C@H](NCc4ccccc4)[C@@H](C)[C@@H]3CC[C@@]12C | HOP-92 NSCLC | 0.0
Cn1c(C(=O)c2cccc3ccccc23)nc2ccccc21 | HOP-92 NSCLC | 0.0
O=S1(=O)N(Cc2ccccc2)[C@@H](Cc2ccccc2)C2O[C@H]2[C@H](Cc2ccccc2)N1Cc1ccccc1 (stereo partly specified) | HOP-92 NSCLC | 0.0
COc1cc2c(cc1OC)C(=O)C(CC1CCN(C(=O)Nc3ccc(C)cc3)CC1)C2 (stereo unspecified) | HOP-92 NSCLC | 0.0
